Collected pIC50 for Prolyl endopeptidase (Sus scrofa) across several studies; compounds listed below.
pIC50: −log10 of the molar value.
Would you please tag the item 1 when its pIC50 is 8 or above, and -1 when it is below?

Example results:
mol.smiles	category
N#C[C@@H]1CCCN1C(=O)[C@@H]1CCCN1C(=O)c1ccc(C(=O)N2CCCC2)cc1	1
CC(=O)[C@H]1CCCN1C(=O)c1cccc(C(=O)N2CCC[C@H]2C(=O)N2CCC[C@@H]2C#N)c1	1
O=C([C@@H]1C[C@H](n2cc(CN3CCNCC3)nn2)CN1C(=O)CCCc1ccccc1)N1CCCC1	-1
[N-]=[N+]=N[C@H]1C[C@@H](C(=O)N2CCCC2)N(C(=O)OCc2ccccc2)C1	-1
O=C([C@@H]1C[C@H](n2cc(-c3ccccc3Cl)nn2)CN1C(=O)CCCc1ccccc1)N1CCCC1	-1
O=C(c1nccs1)[C@@H]1CCCN1C(=O)[C@@H]1CCCN1CCCc1ccccc1	1
N#C[C@@H]1CCCN1C(=O)[C@@H]1CCCN1C(=O)c1cccc(C(=O)N2CCC[C@H]2C(=O)c2ccccc2)c1	1
CC(C)(C)OC(=O)N1CCN(C(=O)[C@H]2CCCN2C(=O)c2cccc(C(=O)N3CCC[C@H]3C(=O)N3CCCC3)c2)CC1	-1

Check the entry O=C([C@@H]1C[C@H](n2cc(-c3ccccc3)nn2)CN1C(=O)OCc1ccccc1)N1CCCC1 : does pIC50 equal or exceed 8?
-1

Check the entry NCCCC[C@H](NC(=O)[C@@H]1CCCN1C(=O)CCCc1ccccc1)C(=O)c1nccs1 : does pIC50 equal or exceed 8?
-1

Check the entry O=C(c1nc2ccccc2s1)[C@@H]1CCCN1C(=O)[C@@H]1CCCN1OCc1ccccc1 : does pIC50 equal or exceed 8?
1

Check the entry O=C(NCc1ccccc1)[C@@H]1CCCN1C(=O)c1cccc(C(=O)N2CCC[C@H]2C(=O)N2CCCC2)c1 : does pIC50 equal or exceed 8?
-1

Check the entry O=C([C@@H]1C[C@H](n2cc(CN3CCOCC3)nn2)CN1C(=O)CCCc1ccccc1)N1CCCC1 : does pIC50 equal or exceed 8?
-1

Check the entry O=C(NCc1ccccc1)C1=CCC[C@H]1C(=O)N1CCC[C@H]1C(=O)CO : does pIC50 equal or exceed 8?
1

Check the entry O=C([C@@H]1CCCN1C(=O)CCC(=O)N1CCC[C@H]1C(=O)N1CCCC1)N1CCCC1 : does pIC50 equal or exceed 8?
-1

* * *

Collected IC50 for Prolyl endopeptidase (Sus scrofa) across several studies; compounds listed below.
Value expressed in nM; do not type the unit.

Answered cases to consult:
mol.smiles	tested.target	unit.annotation	IC50
O=C(c1cccs1)[C@@H]1CCCN1C(=O)[C@@H]1CCCN1C(=O)CCCc1ccccc1	Prolyl endopeptidase (Sus scrofa)	nM	1260
O=C1OC2(c3ccc(O)cc3Oc3cc(O)ccc32)c2ccc(NC(=S)NCCCCCC(=O)N3CCC[C@H]3C(=O)N3CCC[C@H]3C(=O)CO)cc21	Prolyl endopeptidase (Sus scrofa)	nM	0.83
O=C(CCC(=O)N1CCC[C@H]1C(=O)N1CCCC1)N1CCOCC1	Prolyl endopeptidase (Sus scrofa)	nM	1200

# value lookup — system Prolyl endopeptidase (Sus scrofa), readout IC50, item O=C(CO)[C@@H]1CCCN1C(=O)[C@@H]1CCCN1C(=O)c1cccc(C(=O)N2CCC[C@H]2C(=O)C2CCCC2)c1
0.61

# value lookup — system Prolyl endopeptidase (Sus scrofa), readout IC50, item N#C[C@@H]1CCCN1C(=O)[C@@H]1C[C@H](N=[N+]=[N-])CN1C(=O)CCCc1ccccc1
3

# value lookup — system Prolyl endopeptidase (Sus scrofa), readout IC50, item CC(=O)[C@H]1CCCN1C(=O)c1cccc(C(=O)N2CCC[C@H]2C(=O)N2CCC[C@@H]2C(=O)CO)c1
1.2

# value lookup — system Prolyl endopeptidase (Sus scrofa), readout IC50, item O=C([C@@H]1CCCN1C(=O)c1ccc(C(=O)N2CCC[C@H]2C(=O)N2CCCC2)cc1)N1CCCC1
81

# value lookup — system Prolyl endopeptidase (Sus scrofa), readout IC50, item O=C(NCc1ccccc1)[C@@H]1CCCN1C(=O)c1cccc(C(=O)N2CCC[C@@H]2C(=O)N2CCCC2)c1
31

* * *

Collected pIC50 for Prolyl endopeptidase (Sus scrofa, UniProt P23687) across several studies; molecules listed below.
Please treat pIC50 as minus the base-10 logarithm of the molar concentration.

mol.smiles	tested.target	numeric.readout
O=C([C@H]1CCCN1C(=O)c1cccc(C(=O)N2CCC[C@H]2C(=O)N2CCCCCC2)c1)N1CCCC1	Prolyl endopeptidase (Sus scrofa, UniProt P23687)	7.64
CC(C)(C)OC(=O)N1CCN(Cc2cn([C@H]3C[C@@H](C(=O)N4CCCC4)N(C(=O)CCCc4ccccc4)C3)nn2)CC1	Prolyl endopeptidase (Sus scrofa, UniProt P23687)	6.96
O=C(c1cncs1)[C@@H]1CCCN1C(=O)[C@@H]1CCCN1C(=O)CCCc1ccccc1	Prolyl endopeptidase (Sus scrofa, UniProt P23687)	5.96
CCOC(=O)C(=O)[C@@H]1CCCN1C(=O)[C@@H]1CCCN1C(=O)CCCc1ccccc1	Prolyl endopeptidase (Sus scrofa, UniProt P23687)	8.02
O=C([C@@H]1C[C@H](n2ccnn2)CN1C(=O)OCc1ccccc1)N1CCCC1	Prolyl endopeptidase (Sus scrofa, UniProt P23687)	5.94
O=C(CO)[C@@H]1CCCN1C(=O)[C@@H]1CCCN1C(=O)NCc1ccccc1	Prolyl endopeptidase (Sus scrofa, UniProt P23687)	9.70

Look up pIC50: CC(C)(CC(=O)N1CCC[C@H]1C(=O)C1CCCC1)CC(=O)N1CCC[C@H]1C(=O)N1CCC[C@H]1C#N
9.24

Look up pIC50: O=C(CO)[C@@H]1CCCN1C(=O)[C@@H]1CCCN1C(=O)CCCc1ccccc1
9.66

Look up pIC50: C[C@H](NC(=O)c1cccc(C(=O)N[C@H](C)C(=O)N2CCCC2)c1)C(=O)N1CCCC1
7.06

* * *

Collected pIC50 for Prolyl endopeptidase (Sus scrofa) across several studies; molecules listed below.
Please treat pIC50 as minus the base-10 logarithm of the molar concentration.

# value lookup — system Prolyl endopeptidase (Sus scrofa), readout pIC50, item O=C(c1ccccc1)[C@H]1CCCN1C(=O)c1cccc(C(=O)N2CCC[C@H]2C(=O)N2CCCC2)c1
7.74

# value lookup — system Prolyl endopeptidase (Sus scrofa), readout pIC50, item CC(=O)[C@H]1CCCN1C(=O)c1cccc(C(=O)N2CCC[C@H]2C(=O)N2CCCC2)c1
7.19

# value lookup — system Prolyl endopeptidase (Sus scrofa), readout pIC50, item O=C(C1=NCCS1)[C@@H]1CCCN1C(=O)[C@@H]1CCCN1C(=O)CCCc1ccccc1
8.42

# value lookup — system Prolyl endopeptidase (Sus scrofa), readout pIC50, item CC(C)(C)OC(=O)NCc1cn([C@@H]2C[C@@H](C(=O)N3CCCC3)N(C(=O)CCCc3ccccc3)C2)nn1
6.55

# value lookup — system Prolyl endopeptidase (Sus scrofa), readout pIC50, item O=C(c1nccs1)C1CCCN1C(=O)C1CCCN1C(=O)OCc1ccccc1 (stereo not given)
8.07

* * *

Collected pIC50 for Prolyl endopeptidase (Sus scrofa) across several studies; compounds listed below.
Please treat pIC50 as minus the base-10 logarithm of the molar concentration.

compound	pIC50
O=C(NCC(=O)N1CCCC1)c1cccc(C(=O)NCC(=O)N2CCCC2)c1	6.19

# value lookup — system Prolyl endopeptidase (Sus scrofa), readout pIC50, item [N-]=[N+]=N[C@H]1C[C@@H](C(=O)N2CCCC2)N(C(=O)CCCc2ccccc2)C1
6.85

# value lookup — system Prolyl endopeptidase (Sus scrofa), readout pIC50, item CCOC(=O)C(=O)C1CCCN1C(=O)[C@@H]1CCCN1C(=O)CCCc1ccccc1 (some centres undefined)
7.99

# value lookup — system Prolyl endopeptidase (Sus scrofa), readout pIC50, item N#C[C@@H]1CCCN1C(=O)[C@@H]1CCCN1C(=O)CCC(=O)N1CCCCCC1
9.12

# value lookup — system Prolyl endopeptidase (Sus scrofa), readout pIC50, item CC(C)(C)OC(=O)N1CCN(C(=O)[C@@H]2CCCN2C(=O)c2cccc(C(=O)N3CCC[C@H]3C(=O)N3CCCC3)c2)CC1
6.77

# value lookup — system Prolyl endopeptidase (Sus scrofa), readout pIC50, item N#C[C@@H]1CCCN1C(=O)[C@@H]1CCC=C1C(=O)CCCc1ccccc1
9.70

# value lookup — system Prolyl endopeptidase (Sus scrofa), readout pIC50, item O=C([C@@H]1CCCN1C(=O)CCCCC(=O)N1CCC[C@H]1C(=O)N1CCCC1)N1CCCC1
7.17

# value lookup — system Prolyl endopeptidase (Sus scrofa), readout pIC50, item O=C(NCc1ccccc1)C1=C(C(=O)N2CCCC2)CCC1
6.64

# value lookup — system Prolyl endopeptidase (Sus scrofa), readout pIC50, item N#C[C@@H]1CCCN1C(=O)[C@@H]1CCCN1C(=O)c1cccc(C(=O)N2CCCCCC2)c1
8.34
